measurementTarget: T1, human galectin-10-His (human)
T1 construct: Whether the last M of the tag is the start Met of galectin-10 is not clear; also called human Gal10-HIS; humanGal10-His
T1 chain: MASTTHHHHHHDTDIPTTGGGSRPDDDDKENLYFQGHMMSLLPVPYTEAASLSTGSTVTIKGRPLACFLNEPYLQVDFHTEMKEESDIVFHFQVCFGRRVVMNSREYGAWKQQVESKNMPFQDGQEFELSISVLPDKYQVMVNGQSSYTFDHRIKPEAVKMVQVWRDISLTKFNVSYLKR
experimentDescription: ELISA, Gal10-His coated at 1 ug/mL, VHH titrated, anti-Myc-HRP
property: Bmax (OD values) (OD)
Answers are plain numbers, in OD.

INSERT INTO results (binder, property, u, readoutnumber) VALUES
  ('VHH clone 13E09 (VHH, Purified VHH-Myc-His from E. coli; not shown: Myc and His tags of the phagemid vector) VHH: QVQVQESGGGLVQAGNSLRLSCAASGRTFSSYHMMWFRQAPGKEREFVAAIAWRGGTYCANSVKGRCTISRDNAKDTVYLQMNSLKPEDTAVYFCAASLRYVFDPSAMDYWGKGTLVTVSS', 'Bmax (OD values)', 'OD', 1.8);

Please give Bmax (OD values), item by item, for the list that follows.
1. VHH clone 1D06 (VHH, not shown: large carriers, Positive control from the previous human-specific panel; also called 1D6) VHH: QLQLVESGGGLVQPGGSLRLSCAASENSVSTYAMGWFRQAPGKEREFVAAITRAGGNTYNADSVKGRFTISRDNAENTIYLQMNSLKPEDTAVYSCAAGPRYSTISTMFPYWGQGTQVTVSS
2. VHH clone 13D12 (VHH, Purified VHH-Myc-His from E. coli; not shown: Myc and His tags of the phagemid vector) VHH: QLQLVESGGGLVQAGDSLRLSCAASGRTFSSYHMMWFRQAPGKEREFVAALAWRGGTYCANSVKGRCTISRDNAQDTVYLQMNSLKPEDTAVYFCAASRRYVFDPSAMDYWAKGTLVTVSS
3. VHH clone 13G12 (VHH, Purified VHH-Myc-His from E. coli; not shown: Myc and His tags of the phagemid vector) VHH: QLQVVESGGGLVQAGGSLRLSCAASSSAYSMGWFRQAPGKEREFVAVISWSGGSHYDDSVKGRFTISRDGAKNTVYLQMNSLKPEDTAVYYCAVGTLYSFRYRDYDYWGQGTQVTVSS

1: 1.2; 2: 0.8; 3: 1.6
